Provenance of the data: paper PMC9042912

Target: H2-K^b (Mus musculus)
Construct: RMA-S cells were added per well to a 96-well flat-bottom plate and incubated at 30 °C overnight; endogenous in cells; host or cells: RMA-S cells (TAP-deficient), obtained from Dr. Steve Porcelli
Sequence (P01901 22-369): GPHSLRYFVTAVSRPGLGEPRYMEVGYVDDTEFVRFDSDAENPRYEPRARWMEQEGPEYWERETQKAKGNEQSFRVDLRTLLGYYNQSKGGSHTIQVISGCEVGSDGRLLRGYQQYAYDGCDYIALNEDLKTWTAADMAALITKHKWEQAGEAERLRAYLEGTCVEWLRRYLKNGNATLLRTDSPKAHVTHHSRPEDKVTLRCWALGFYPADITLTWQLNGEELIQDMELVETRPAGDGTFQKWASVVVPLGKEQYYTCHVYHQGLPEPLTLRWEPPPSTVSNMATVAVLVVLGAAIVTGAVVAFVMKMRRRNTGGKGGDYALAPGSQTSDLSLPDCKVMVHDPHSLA
Sequence (P01887 21-119 partner): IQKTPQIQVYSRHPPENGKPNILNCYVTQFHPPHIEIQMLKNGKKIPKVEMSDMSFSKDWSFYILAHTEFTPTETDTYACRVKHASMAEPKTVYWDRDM
Assay: cell-based
No end group written: not given here.
Readout Label: pKd
Reminder that pKd means the negative base-10 logarithm of the concentration expressed in mol/L.

Ask: What does the record list as pKd for SIINFEKA [A8] ?
Reply: 6.45
